# ASSAY_NAME: In vitro keratolysis study: release of protein from ground callus (BioRad protein assay)
# CONDITION_LABEL: 0.005% solution, incubation 40 minutes (Table 3)
// NB: equality with 0.06 mg/4 ml counts as f; only Amount of Protein Released strictly below is t

{"columns": ["MOLECULE", "CLASS"],
 "data": [
  ["O=P([O-])([O-])[O-].[Na+].[Na+].[Na+] [Sodium phosphate, tribasic]", "t"],
  ["O=C([O-])[O-].[K+].[K+] [Potassium carbonate]", "f"],
  ["C1CCNCC1 [Piperidine]", "f"]
]}

---

# ASSAY_NAME: In vitro keratolysis study: release of protein from ground callus (BioRad protein assay)
# CONDITION_LABEL: 0.005% solution, incubation 40 minutes (Table 3)
Amount of Protein Released listing for selected compounds.

{"columns": ["COMPOUND", "Amount of Protein Released, mg/4 ml"],
 "data": [
  ["CC(=O)[O-].[K+] [Potassium acetate]", 0.060],
  ["[Na+].[OH-] [NaOH, Sodium hydroxide]", 0.059],
  ["NCCN", 0.059],
  ["C1CCNC1", 0.060]
]}
